# EXPERIMENTAL_TARGET: CDK9/CycT1 (Homo sapiens)
# Construct: Recombinant full-length His-tagged human CDK9 and CycT1; purchased Life Technologies PV4131; host or cells: insect cells
# Sequence (P50750 whole entry): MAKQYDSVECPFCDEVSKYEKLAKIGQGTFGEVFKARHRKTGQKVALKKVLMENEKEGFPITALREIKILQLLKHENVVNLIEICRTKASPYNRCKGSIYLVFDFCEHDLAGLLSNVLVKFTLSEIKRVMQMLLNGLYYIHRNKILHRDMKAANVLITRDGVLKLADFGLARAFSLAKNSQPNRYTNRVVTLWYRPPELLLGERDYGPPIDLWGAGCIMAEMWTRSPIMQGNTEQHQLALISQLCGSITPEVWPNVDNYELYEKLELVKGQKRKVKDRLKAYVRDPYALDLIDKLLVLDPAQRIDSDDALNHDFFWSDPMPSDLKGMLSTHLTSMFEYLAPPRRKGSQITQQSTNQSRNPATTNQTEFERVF
# Sequence (O60563 whole entry partner): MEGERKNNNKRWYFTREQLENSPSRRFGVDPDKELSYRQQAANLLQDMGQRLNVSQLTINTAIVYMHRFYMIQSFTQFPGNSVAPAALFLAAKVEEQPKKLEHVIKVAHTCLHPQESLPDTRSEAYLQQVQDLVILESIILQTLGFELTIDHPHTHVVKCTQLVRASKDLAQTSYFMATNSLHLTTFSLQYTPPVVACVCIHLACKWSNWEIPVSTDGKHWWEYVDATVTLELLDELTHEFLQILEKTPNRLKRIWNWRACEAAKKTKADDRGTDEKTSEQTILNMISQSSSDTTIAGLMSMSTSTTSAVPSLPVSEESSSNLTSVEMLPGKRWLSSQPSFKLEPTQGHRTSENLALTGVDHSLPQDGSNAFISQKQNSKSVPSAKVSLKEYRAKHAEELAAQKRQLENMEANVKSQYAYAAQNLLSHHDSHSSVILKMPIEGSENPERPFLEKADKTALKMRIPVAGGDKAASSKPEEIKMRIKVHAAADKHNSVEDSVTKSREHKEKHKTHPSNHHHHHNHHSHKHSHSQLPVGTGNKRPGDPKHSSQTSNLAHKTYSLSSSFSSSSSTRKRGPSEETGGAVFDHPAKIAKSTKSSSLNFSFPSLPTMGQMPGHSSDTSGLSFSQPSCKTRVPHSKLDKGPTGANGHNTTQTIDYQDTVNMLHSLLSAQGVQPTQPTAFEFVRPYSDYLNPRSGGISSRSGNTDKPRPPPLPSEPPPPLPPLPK
# EXPERIMENT: CDK9/CycT1 high ATP kinase assay (TR-FRET, 2 mM ATP)
# Format: biochemical
# CONDITION_DETAILS: 2 mM ATP (high ATP); median; read-out: CDK9/CyclinT1, 2 mM ATP (high ATP), IC50 (median)
IC50 values by entry

// `C[C@H]1CN(c2nc(NCc3nc4ccccc4[nH]3)n3ncc(Br)c3n2)CCN1C` : IC50 value = > 20 µM

Further cases:
// `Cc1ccc2[nH]c(CNc3nc(N4C[C@H]5C[C@@H]4CO5)nc4c(Br)cnn34)nc2c1` : IC50 value = > 20 µM

// `CN1CCN(c2nc(NCc3nc4c(F)c(F)ccc4[nH]3)n3ncc(CC(F)(F)F)c3n2)CC1` : IC50 value = > 20 µM

// `Clc1cc2nc(CNc3nc(N4CCOCC4)nc4c(C5CC5)cnn34)[nH]c2cc1Cl` : IC50 value = > 20 µM

// `c1ccc(-c2cnn3c(NCc4nc5ccccc5[nH]4)nc(N4CCOCC4)nc23)cc1` : IC50 value = > 20 µM

// `Clc1cnn2c(NCc3nc4ccccc4[nH]3)nc(N3CCOCC3)nc12` : IC50 value = > 20 µM

// `c1ccc2[nH]c(CNc3nc(N4C[C@@H]5C[C@H]4CO5)nc4c(C5CC5)cnn34)nc2c1` : IC50 value = > 20 µM

These measurements were taken from patent US20230117034A1.
